Assay: Pharmacokinetic study in cynomolgus monkeys
Type: in vivo
Conditions: Oral (2 mg/kg), NA: no detectable
readout kind: Cmax (ng/mL)

[I] [2H]C([2H])([2H])CC(=O)c1cnc(Nc2ccc(C(C)(C)O)c(F)n2)cc1Nc1nccc(-c2ncn(C([2H])([2H])[2H])n2)c1OC
[II] [2H]C([2H])([2H])CC(=O)c1cnc(NC(=O)C2CC2)cc1Nc1nccc(-c2ncn(C([2H])([2H])[2H])n2)c1OC
[III] [2H]C([2H])([2H])CC(=O)c1cnc(NC(=O)C2CC2)cc1Nc1cccc(-c2ncn(C([2H])([2H])[2H])n2)c1OC
[IV] [2H]C([2H])([2H])CC(=O)c1cnc(Nc2cccc(C#N)n2)cc1Nc1cccc(-c2ncn(C([2H])([2H])[2H])n2)c1OC
In: Lab note: Cmax ranking, ascending, for the listed compounds. Answer format: the labels, ordered as requested.
Out: I, IV, II, III

* * *

Assay: Pharmacokinetic study in C57BL/6 mice
Assay type: in vivo, male C57BL/6 mice
Conditions: male, mouse, plasma, iv, I.V. (2 mg/kg)
readout kind: C0 (µg/mL)

molecule="[2H]C([2H])([2H])CC(=O)c1cnc(NC(=O)C2CC2)cc1Nc1nccc(-c2ncn(C([2H])([2H])[2H])n2)c1OC [Example 200]" endpoint_value=2.39
molecule="[2H]C([2H])([2H])NC(=O)c1nnc(NC(=O)C2CC2)cc1Nc1cccc(-c2ncn(C)n2)c1OC [control, BMS-986165, reference compound]" endpoint_value=3.22
molecule="[2H]C([2H])([2H])CC(=O)c1cnc(Nc2ccc(C(C)(C)O)c(F)n2)cc1Nc1cccc(-c2ncn(C([2H])([2H])[2H])n2)c1OC [Example 202]" endpoint_value=3.34
molecule="[2H]C([2H])([2H])CC(=O)c1cnc(NC(=O)C2CC2)cc1Nc1cccc(-c2ncn(C([2H])([2H])[2H])n2)c1OC [Example 195]" endpoint_value=2.95

* * *

Assay: Pharmacokinetic study in Beagle dogs
Assay type: in vivo
Conditions: dog, plasma, iv, I.V. (1 mg/kg)
readout kind: AUC (ng·h/mL)
# output: bare number, implied unit ng·h/mL

In: AUC for [2H]C([2H])([2H])NC(=O)c1nnc(NC(=O)C2CC2)cc1Nc1cccc(-c2ncn(C)n2)c1OC [control, BMS-986165, reference compound] ?
Out: 1900

* * *

Test: Pharmacokinetic study in cynomolgus monkeys
Format: in vivo
Settings: cynomolgus monkey, plasma, iv, I.V. (1 mg/kg)
readout kind: clearance (mL/min/kg)
The reply should contain only the number, in mL/min/kg.

In: What does the record list as clearance for [2H]C([2H])([2H])NC(=O)c1nnc(NC(=O)C2CC2)cc1Nc1cccc(-c2ncn(C)n2)c1OC [control, BMS-986165, reference compound] ?
Out: 2.79

* * *

Assay: Pharmacokinetic study in cynomolgus monkeys
Type: in vivo
Conditions: cynomolgus monkey, plasma, iv, I.V. (1 mg/kg)
readout kind: half-life (h)
Numeric answer only, unit h assumed.

In: Return reported half-life; argument: [2H]C([2H])([2H])NC(=O)c1nnc(NC(=O)C2CC2)cc1Nc1cccc(-c2ncn(C)n2)c1OC [control, BMS-986165, reference compound]
Out: 7.54

* * *

Assay: Pharmacokinetic study in Beagle dogs
Assay type: in vivo
Conditions: dog, plasma, iv, I.V. (1 mg/kg)
readout kind: half-life (h)
Give your result in h as a bare value.

In: What value of half-life has been recorded for this entry: [2H]C([2H])([2H])NC(=O)c1nnc(NC(=O)C2CC2)cc1Nc1cccc(-c2ncn(C)n2)c1OC [control, BMS-986165, reference compound]
Out: 4.43

* * *

Experiment: Pharmacokinetic study in cynomolgus monkeys
Assay type: in vivo
Settings: cynomolgus monkey, plasma, Oral (2 mg/kg), NA: no detectable
readout kind: half-life (h)
Could you give me the number in h? Just the number is fine.

In: Any idea what its half-life is? The compound is [2H]C([2H])([2H])NC(=O)c1nnc(NC(=O)C2CC2)cc1Nc1cccc(-c2ncn(C)n2)c1OC [control, BMS-986165, reference compound]
Out: 10.6

* * *

Experiment: Pharmacokinetic study in C57BL/6 mice
Type: in vivo, male C57BL/6 mice
Conditions: male, mouse, plasma, iv, I.V. (2 mg/kg)
readout kind: clearance (mL/min/kg)
Numeric answer only, unit mL/min/kg assumed.

In: Any idea what its clearance is? The compound is [2H]C([2H])([2H])NC(=O)c1nnc(NC(=O)C2CC2)cc1Nc1cccc(-c2ncn(C)n2)c1OC [control, BMS-986165, reference compound]
Out: 15.6

* * *

Test: Pharmacokinetic study in C57BL/6 mice
Format: in vivo, male C57BL/6 mice
Conditions: male, mouse, plasma, Oral (10 mg/kg)
readout kind: half-life (h)
Give the value, in units of h, as a plain number.

In: Name the reported half-life value associated with the compound [2H]C([2H])([2H])NC(=O)c1nnc(NC(=O)C2CC2)cc1Nc1cccc(-c2ncn(C)n2)c1OC [control, BMS-986165, reference compound]
Out: 2.96

* * *

Assay: Pharmacokinetic study in Beagle dogs
Type: in vivo
Settings: dog, plasma, iv, I.V. (0.5 mg/kg)
Method: The pharmacokinctics of test compounds were evaluated in male C57BL/6 mice, Sprague Dawley rats, Beagle dogs, and cynomolgus monkeys when administered via oral gavage and IV injection. The animals were fasted overnight before administration. […] The samples were analyzed by LC/MS/MS and the concentration of test compound at each timepoint was determined by linear regression. Pharmacokinetic parameters were calculated from the plasma concentrations using Pheonix WinNonlin.
readout kind: C0 (ng/mL)
Numbers only; they are read as ng/mL.

In: Given [2H]C([2H])([2H])CC(=O)c1cnc(NC(=O)C2CC2)cc1Nc1nccc(-c2ncn(C([2H])([2H])[2H])n2)c1OC [Example 200] , state its recorded C0.
Out: 29.7

* * *

Experiment: Pharmacokinetic study in Beagle dogs
Assay type: in vivo
Conditions: dog, plasma, Oral (2 mg/kg)
readout kind: Cmax (ng/mL)
Respond with the bare value in ng/mL.

In: For the compound shown here, [2H]C([2H])([2H])NC(=O)c1nnc(NC(=O)C2CC2)cc1Nc1cccc(-c2ncn(C)n2)c1OC [control, BMS-986165, reference compound] , give the reported Cmax.
Out: 222

* * *

Test: Pharmacokinetic study in Beagle dogs
Format: in vivo
Details: dog, plasma, Oral (2 mg/kg)
readout kind: half-life (min)
Give the number; min is assumed, so skip it.

In: Looking for the measured half-life of [2H]C([2H])([2H])NC(=O)c1nnc(NC(=O)C2CC2)cc1Nc1cccc(-c2ncn(C)n2)c1OC [control, BMS-986165, reference compound] , can you help?
Out: 373

* * *

Assay: Pharmacokinetic study in C57BL/6 mice
Assay type: in vivo, male C57BL/6 mice
Conditions: male, mouse, plasma, iv, I.V. (2 mg/kg), read-out: Vdss
readout kind: Vd (L/kg)
Unit L/kg implied. Number only.

In: Given the entry [2H]C([2H])([2H])NC(=O)c1nnc(NC(=O)C2CC2)cc1Nc1cccc(-c2ncn(C)n2)c1OC [control, BMS-986165, reference compound] , report its measured Vd.
Out: 1.56

* * *

Experiment: Pharmacokinetic study in Sprague Dawley rats
Assay type: in vivo
Conditions: rat, plasma, iv, I.V. (1 mg/kg)
readout kind: C0 (ng/mL)

compound="[2H]C([2H])([2H])NC(=O)c1nnc(NC(=O)C2CC2)cc1Nc1cccc(-c2ncn(C)n2)c1OC [control, BMS-986165, reference compound]" readout_kind=C0 endpoint_value=1740

[P] [2H]C([2H])([2H])CC(=O)c1cnc(NC(=O)C2CC2)cc1Nc1cccc(-c2ncn(C([2H])([2H])[2H])n2)c1OC [Example 195]
[Q] [2H]C([2H])([2H])CC(=O)c1cnc(Nc2cccc(C#N)n2)cc1Nc1cccc(-c2ncn(C([2H])([2H])[2H])n2)c1OC [Example 198]
In: Between P and Q , which one has the lower reported C0 value? Selection: enter the item's label.
Out: Q
(Q: 1200 ng/mL, P: 2150 ng/mL)

* * *

Assay: Pharmacokinetic study in Sprague Dawley rats
Format: in vivo
Conditions: rat, plasma, iv, I.V. (1 mg/kg)
readout kind: clearance (mL/min/kg)
# value in mL/min/kg; strip the unit string

In: # input compound: [2H]C([2H])([2H])NC(=O)c1nnc(NC(=O)C2CC2)cc1Nc1cccc(-c2ncn(C)n2)c1OC [control, BMS-986165, reference compound] ; wanted: its clearance
Out: 8.41

* * *

Assay: Pharmacokinetic study in Beagle dogs
Type: in vivo
Conditions: dog, plasma, Oral (2 mg/kg)
readout kind: Tmax (h)
Give the number; h is assumed, so skip it.

In: Value lookup for Tmax; key = [2H]C([2H])([2H])NC(=O)c1nnc(NC(=O)C2CC2)cc1Nc1cccc(-c2ncn(C)n2)c1OC [control, BMS-986165, reference compound]
Out: 1.67

Hey, just so you know, these numbers are from patent US11731956B2.
